# System: Monochoria vaginalis
# Assay method text: Paddy herbicidal activity test
# Format: in vivo
# Run parameters: 1g a.i./10a; irrigated paddy pot, 30 days
Measured metric: Monochoria vaginalis herbicidal efficacy (growth inhibition level)

For orientation, consider the following solved cases.
- Compound: "CC(C)=CCNc1c(C#N)cnn1-c1nn2c(c1Br)CCCC2 [Compound 48]"
  Val: "8 (8: 80% to less than 90%)"
- Compound: "N#Cc1cnn(-c2nn3c(c2Cl)CCCC3)c1NCC(Cl)=CCl (mixture of isomers) [Compound 11]"
  Val: "8 (8: 80% to less than 90%)"
- Compound: "C=CCNc1c(C#N)cnn1-c1nn2c(c1Cl)CCCC2 [Control agent 4.59, reference compound]"
  Val: "2 (2: 20% to less than 30%)"

Now take the following compound into account.
// query Monochoria vaginalis herbicidal efficacy (growth inhibition level) value for entry CC=CCNc1c(C#N)cnn1-c1nn2c(c1Br)CCCC2 (mixture of isomers) [Compound 47] 8 (8: 80% to less than 90%)
